# ASSAYED_SYSTEM: DNA topoisomerase 2-alpha (Homo sapiens)
# ASSAY_NAME: Inhibition of recombinant human topoisomerase 2alpha-mediated relaxation of supercoiled pBR322 DNA at 100 uM measured after 30 mins by ethidium bromide staining based agarose gel electrophoresis relative to control
PROPERTY_LABEL: inhibition
# number then unit; no other words

Oc1ccc(-c2cc(-c3ccccc3)nc3c2Cc2c(O)cccc2-3)cc1 = 1.5%
Oc1ccccc1-c1cc(-c2ccccc2F)nc2c1Cc1cccc(O)c1-2 = 0.6%
Oc1ccccc1-c1cc(-c2ccccc2)c2c(n1)-c1c(O)cccc1C2 = 1.2%
Oc1ccc(-c2cc(-c3ccc(F)cc3)nc3c2Cc2c(O)cccc2-3)cc1 = 50.8%
Oc1ccc(-c2cc(-c3ccccc3F)nc3c2Cc2cccc(O)c2-3)cc1 = 47.1%

### Prompt Consider the molecule `Oc1ccc(-c2cc(-c3ccccc3C(F)(F)F)nc3c2Cc2cc(O)ccc2-3)cc1` and give its recorded inhibition.
### Response 85.9%

### Prompt Assign inhibition to the following record: `Oc1ccc(-c2cc(-c3cccc(C(F)(F)F)c3)nc3c2Cc2ccc(O)cc2-3)cc1`
### Response 87.1%

### Prompt For `Oc1cccc(-c2cc(-c3cccc(Cl)c3)nc3c2Cc2cccc(O)c2-3)c1` , write its inhibition.
### Response 88.6%

### Prompt Recall and state the measured inhibition for `Oc1ccc(-c2cc(-c3cccc(Cl)c3)nc3c2Cc2cccc(O)c2-3)cc1` .
### Response 24.4%

### Prompt Indicate the recorded inhibition value for this molecule: `Oc1cccc2c1-c1nc(-c3ccccc3)cc(-c3ccccc3)c1C2`
### Response 57.5%

###

# Test system: DU-145
# ASSAY_NAME: Antiproliferative activity against human DU145 cells measured after 72 hrs by EZ-Cytox assay
# Type: functional, cell-based
# EXPERIMENTAL_SETUP: DU-145, 72 h
Item-by-item account of IC50
Answer with a number only, understood to be in nM.

Some compounds with known IC50 results, for comparison:
Oc1cccc(-c2cc(-c3ccccc3F)nc3c2Cc2cccc(O)c2-3)c1 = 1880
Oc1ccc2c(c1)Cc1c(-c3ccccc3Cl)cc(-c3ccccc3O)nc1-2 = 4430
Oc1ccc(-c2cc(-c3ccccc3F)nc3c2Cc2cc(O)ccc2-3)cc1 = 1260
Oc1ccc(-c2cc(-c3ccc(Cl)cc3)nc3c2Cc2c(O)cccc2-3)cc1 = 1880
Oc1ccc(-c2cc(-c3cccc(Cl)c3)nc3c2Cc2cc(O)ccc2-3)cc1 = 1200
Oc1ccc(-c2cc(-c3ccccc3Cl)nc3c2Cc2cc(O)ccc2-3)cc1 = 430
Oc1cccc(-c2cc(-c3cccc(C(F)(F)F)c3)nc3c2Cc2ccc(O)cc2-3)c1 = 1540
Oc1cccc(-c2cc(-c3ccccc3)nc3c2Cc2cccc(O)c2-3)c1 = 720

### Prompt Look up DU-145 data: IC50 of `Oc1cccc(-c2cc(-c3cccc(Cl)c3)nc3c2Cc2ccc(O)cc2-3)c1` , then report it.
### Response 3280

###

# System: DU-145
# ASSAY_NAME: Antiproliferative activity against human DU145 cells measured after 72 hrs by EZ-Cytox assay
# Assay type: functional, cell-based
# EXPERIMENTAL_SETUP: DU-145, 72 h
Field: label. Allowed values: Yes (IC50 < 3 µM) or No (IC50 >= 3 µM).

Completed entries (count: 8):
Oc1ccccc1-c1cc(-c2cccc(Cl)c2)c2c(n1)-c1cccc(O)c1C2 = No
Oc1cccc(-c2cc(-c3ccccc3C(F)(F)F)nc3c2Cc2c(O)cccc2-3)c1 = Yes
Oc1ccccc1-c1cc(-c2ccccc2F)nc2c1Cc1cccc(O)c1-2 = No
Oc1ccc(-c2cc(-c3cccc(Cl)c3)nc3c2Cc2c(O)cccc2-3)cc1 = Yes
Oc1ccc(-c2cc(-c3cccc(Cl)c3)c3c(n2)-c2c(O)cccc2C3)cc1 = No
Oc1ccc2c(c1)Cc1c(-c3ccccc3O)cc(-c3ccc(F)cc3)nc1-2 = No
Oc1ccc(-c2cc(-c3ccccc3)nc3c2Cc2ccc(O)cc2-3)cc1 = Yes
Oc1ccc2c(c1)-c1nc(-c3ccccc3O)cc(-c3ccccc3)c1C2 = Yes

### Prompt Record `Oc1ccc(-c2cc(-c3ccccc3Cl)c3c(n2)-c2cc(O)ccc2C3)cc1` : is its IC50 strictly below 3 µM?
### Response No

### Prompt Determine if `Oc1cccc(-c2cc(-c3ccc(Cl)cc3)c3c(n2)-c2cccc(O)c2C3)c1` shows IC50 strictly lower than 3 µM.
### Response No

### Prompt IC50 under 3 µM? Item: `Oc1ccccc1-c1cc(-c2ccc(C(F)(F)F)cc2)nc2c1Cc1cccc(O)c1-2`
### Response No

### Prompt Item `Oc1ccccc1-c1cc(-c2ccccc2Cl)c2c(n1)-c1c(O)cccc1C2` : IC50 beneath 3 µM, strictly?
### Response No

### Prompt Regarding `Oc1ccccc1-c1cc(-c2ccccc2C(F)(F)F)nc2c1Cc1c(O)cccc1-2` , kindly confirm whether its IC50 is beneath 3 µM.
### Response Yes

###

# ASSAY_NAME: Stability in rat plasma assessed as parent compound remaining at 1 mM measured after 1 hr by LC-MS/MS analysis
# Format: ADME, cell-free
# EXPERIMENTAL_SETUP: read-out: Stability
PROPERTY_LABEL: remaining at 1 h (%)
Provide only the numeric value, understood in %.

### Prompt Please give the documented remaining at 1 h of `Oc1ccc(-c2cc(-c3ccccc3Cl)nc3c2Cc2c(O)cccc2-3)cc1`
### Response 111

###

# System: DU-145
# ASSAY_NAME: Antiproliferative activity against human DU145 cells measured after 72 hrs by EZ-Cytox assay
# Format: functional, cell-based
# EXPERIMENTAL_SETUP: DU-145, 72 h
PROPERTY_LABEL: log10(IC50) (log10 of the value in nM)
# log10 transformed; quantity=IC50; unit=nM

Oc1cccc(-c2cc(-c3ccc(C(F)(F)F)cc3)nc3c2Cc2ccc(O)cc2-3)c1 = 3.50
Oc1cccc(-c2cc(-c3ccccc3Cl)c3c(n2)-c2ccc(O)cc2C3)c1 = 3.37
Oc1ccc(-c2cc(-c3cccc(C(F)(F)F)c3)nc3c2Cc2c(O)cccc2-3)cc1 = 3.24

### Prompt Give log10(IC50) for `Oc1ccccc1-c1cc(-c2ccccc2)c2c(n1)-c1cccc(O)c1C2`
### Response 3.40

### Prompt Fill in log10(IC50) for record `Oc1ccc2c(c1)Cc1c(-c3ccccc3O)cc(-c3cccc(F)c3)nc1-2`
### Response 3.50

### Prompt Check the records and state log10(IC50) for `Oc1ccc(-c2cc(-c3cccc(F)c3)nc3c2Cc2c(O)cccc2-3)cc1`
### Response 3.31

### Prompt Please indicate log10(IC50) recorded for `Oc1ccc(-c2cc(-c3cccc(C(F)(F)F)c3)nc3c2Cc2cc(O)ccc2-3)cc1`
### Response 3.28

### Prompt Output log10(IC50) of `Oc1ccccc1-c1cc(-c2ccc(F)cc2)nc2c1Cc1cccc(O)c1-2`
### Response 3.15

### Prompt Supply measured log10(IC50) of `Oc1ccc(-c2cc(-c3cccc(F)c3)nc3c2Cc2cccc(O)c2-3)cc1` in your reply.
### Response 3.76

### Prompt Output measured log10(IC50) for this item: `Oc1ccc(-c2cc(-c3ccccc3)nc3c2Cc2cccc(O)c2-3)cc1`
### Response 3.62

### Prompt Complete the entry with log10(IC50) for `Oc1ccccc1-c1cc(-c2ccccc2)nc2c1Cc1c(O)cccc1-2`
### Response 2.90

### Prompt Tell me log10(IC50) reported for `Oc1ccc(-c2cc(-c3cccc(F)c3)nc3c2Cc2ccc(O)cc2-3)cc1`
### Response 3.68

### Prompt Assign log10(IC50) to the following record: `Oc1ccccc1-c1cc(-c2ccc(Cl)cc2)nc2c1Cc1c(O)cccc1-2`
### Response 2.79

### Prompt // fetch log10(IC50) given entry `Oc1cccc(-c2cc(-c3ccccc3F)nc3c2Cc2c(O)cccc2-3)c1`
### Response 3.31

### Prompt Identify the reported log10(IC50) for the following entry. `Oc1cccc(-c2cc(-c3ccccc3C(F)(F)F)nc3c2Cc2cccc(O)c2-3)c1`
### Response 3.06

### Prompt Give recorded log10(IC50). `Oc1cccc(-c2cc(-c3ccccc3)c3c(n2)-c2ccc(O)cc2C3)c1`
### Response 2.43

### Prompt Read the entry `Oc1cccc(-c2cc(-c3ccccc3Cl)c3c(n2)-c2c(O)cccc2C3)c1` and write its reported log10(IC50).
### Response 3.51

### Prompt Report log10(IC50) for `Oc1ccc(-c2cc(-c3ccccc3C(F)(F)F)nc3c2Cc2cc(O)ccc2-3)cc1`
### Response 3.36

### Prompt Provide only the value of recorded log10(IC50) for `Oc1cccc(-c2cc(-c3cccc(Cl)c3)c3c(n2)-c2cc(O)ccc2C3)c1`
### Response 3.51

### Prompt Consider the compound `Oc1ccccc1-c1cc(-c2cccc(Cl)c2)nc2c1Cc1c(O)cccc1-2` and give its recorded log10(IC50).
### Response 2.75

### Prompt Note down log10(IC50) recorded for `Oc1cccc(-c2cc(-c3ccccc3Cl)nc3c2Cc2cc(O)ccc2-3)c1`
### Response 2.91
